- protocol description: Kinetic solubility in pH 7.4 PBS
- Assay type: physicochemical
A collection of compounds and their measured solubility kinetic
property: solubility kinetic (µg/mL)

>>> number("Cc1cc(C)c2c(CP(=O)(O)O)cc(=O)[nH]c2c1")
51.6
>>> number("O=c1cc(CP(=O)(O)O)c2c(Br)cc(Br)cc2[nH]1")
95.9
